test system: BT-549 breast; experiment: NCI tumour cell line growth inhibition, 48 h
outcome measure: log10 TGI (log10 of the value in µM)
Scale type: logarithmic (base 10). Underlying TGI unit: µM.

COC1CCC(OC2CC(C3(C)CCC4(CC(O)C(C)C(C(C)/C=C(\C)C(=O)C(C)CC(C)C(=O)O)O4)O3)OC3(OC(C4OC(O)(CO)C(C)CC4C)CC3C)C2C)OC1C (stereo not drawn) | 0.10
C=C1C(=O)O[C@H]2[C@H]1CC/C(COC(=O)c1ccc(C(=O)O)s1)=C\CC[C@@]1(C)O[C@@H]21 | 0.69
CN(C)CCNc1cccc2sc3ccc(O)cc3c(=O)c12 | 1.37
O=c1c(OC/C(=N/O)c2ccccc2)c(-c2ccccc2)oc2ccccc12 | 1.43

Okay, next one:
Prompt line: // fetch log10 TGI for CC1=CC[C@@H]2C(C)(C)[C@@H](O)CC[C@@]2(C)[C@@H]1COc1ccc2ccc(=O)oc2c1 ; system: BT-549 breast
Response line: 0.92
